biological target: Cannabinoid receptor 1 (Mus musculus, UniProt P47746); test: Inverse agonist at mouse brain CB1R expressed in CHOK1 cell membranes assessed as inhibition of CP55940-stimulated [35S]GTP-gammaS binding measured after 60 mins by scintillation spectrometry
Sequence (P47746 whole entry): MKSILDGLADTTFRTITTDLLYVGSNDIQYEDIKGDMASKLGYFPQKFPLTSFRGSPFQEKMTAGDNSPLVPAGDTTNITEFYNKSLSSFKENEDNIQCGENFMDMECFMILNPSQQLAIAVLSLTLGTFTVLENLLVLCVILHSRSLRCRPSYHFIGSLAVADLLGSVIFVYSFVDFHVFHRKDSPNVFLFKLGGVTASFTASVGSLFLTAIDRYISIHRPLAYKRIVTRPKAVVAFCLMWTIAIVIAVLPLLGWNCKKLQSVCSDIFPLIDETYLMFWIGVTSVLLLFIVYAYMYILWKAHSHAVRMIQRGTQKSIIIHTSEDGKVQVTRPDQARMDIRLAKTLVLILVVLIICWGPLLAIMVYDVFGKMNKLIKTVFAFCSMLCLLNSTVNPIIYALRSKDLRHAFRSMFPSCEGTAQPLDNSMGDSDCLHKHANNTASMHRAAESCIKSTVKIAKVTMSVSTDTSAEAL
Assignment: determine reported pIC50 for the given compounds.
Give bare numbers, as −log10 of the molar value.

Below, each entry is followed by its recorded pIC50 result.
COMPOUND | READOUT VALUE
N/C(=N/C(=N\S(=O)(=O)c1ccc(Cl)cc1)N1CC(c2ccccc2)C(c2ccc(Cl)cc2)=N1)c1ccc(Cl)cc1 (stereo unspecified) | 7.74
CC(C)S/C(N)=N\C(=N/S(=O)(=O)c1ccc(Cl)cc1)N1CC(c2ccccc2)C(c2ccc(Cl)cc2)=N1 (stereo unspecified) | 6.40
CNC(=NS(=O)(=O)c1ccc(Cl)cc1)N1CC(c2ccccc2)C(c2ccc(Cl)cc2)=N1 (stereo not drawn) [RAC-IBIPINABANT] | 7.12
N/C(=N/C(=N\S(=O)(=O)c1ccc(Cl)cc1)N1CC(c2ccccc2)C(c2ccc(Cl)cc2)=N1)c1cccs1 (stereo unspecified) | 7.00

Need pIC50 for each of these compounds.
1. C/C(N)=N\C(=N/S(=O)(=O)c1ccc(F)cc1)N1CC(c2ccccc2)C(c2ccc(Cl)cc2)=N1 (stereo unspecified)
2. N/C(=N/C(=N\S(=O)(=O)c1ccc(Cl)cc1)N1CC(c2ccccc2)C(c2ccc(Cl)cc2)=N1)c1ccccn1 (stereo unspecified)

A)
[6.16, 7.48]
